test system: Salmonella typhi; assay: Antibacterial activity against Salmonella enterica subsp. enterica serovar Typhi ATCC 15499 assessed as growth inhibition after 24 hr by two-fold serial dilution method; type: functional; conditions: ATCC 15499, 24 h
assayEndpoint: MIC (µg/mL)

[[record]]
smilesrecord = "O=C(O)c1cn(C2CC2)c2cc(N3CCNCC3)c(F)cc2c1=O"
testresult = 3.12

[[record]]
smilesrecord = "Oc1ccccc1-c1nc2ccccc2[nH]1"
testresult = 400

[[record]]
smilesrecord = "c1ccc(-c2nc3ccccc3[nH]2)cc1"
testresult = 6.25

[[record]]
smilesrecord = "O=[N+]([O-])c1ccc(-c2nc3ccccc3[nH]2)cc1"
testresult = 25

[[record]]
smilesrecord = "CC1(C)S[C@@H]2[C@H](NC(=O)[C@H](N)c3ccccc3)C(=O)N2[C@H]1C(=O)O"
testresult = 6.25

[[record]]
smilesrecord = "Oc1ccc(-c2nc3ccccc3[nH]2)cc1"
testresult = 400

[[record]]
smilesrecord = "COc1ccc(-c2nc3ccccc3[nH]2)cc1"
testresult = 25

[[record]]
smilesrecord = "Clc1ccc(-c2nc3ccccc3[nH]2)cc1"
testresult = 25

[[record]]
smilesrecord = "Cc1ccc(-c2nc3ccccc3[nH]2)cc1"
testresult = 50

[[record]]
smilesrecord = "C(=C\\c1ccc(-c2nc3ccccc3[nH]2)cc1)/c1ccccc1"
testresult = 25


====

system: Staphylococcus aureus; assay: Antibacterial activity against Staphylococcus aureus ATCC 11632 assessed as growth inhibition after 24 hr by two-fold serial dilution method; format: functional; conditions: ATCC 11632, 24 h
MIC values for the compounds below.
assayEndpoint: MIC (µg/mL)

[[record]]
smilesrecord = "COc1ccc(-c2nc3ccccc3[nH]2)cc1"
assayendpoint = "MIC"
testresult = 12.5

[[record]]
smilesrecord = "Oc1ccccc1-c1nc2ccccc2[nH]1"
assayendpoint = "MIC"
testresult = 25

[[record]]
smilesrecord = "Clc1ccc(-c2nc3ccccc3[nH]2)cc1"
assayendpoint = "MIC"
testresult = 12.5


====

test system: Staphylococcus aureus; assay: Antibacterial activity against Staphylococcus aureus ATCC 11632 assessed as growth inhibition after 24 hr by two-fold serial dilution method; type: functional; details: ATCC 11632, 24 h
assayEndpoint: MIC (µg/mL)

[[record]]
smilesrecord = "Oc1ccc(-c2nc3ccccc3[nH]2)cc1"
assayendpoint = "MIC"
testresult = 25

[[record]]
smilesrecord = "Cc1ccc(-c2nc3ccccc3[nH]2)cc1"
assayendpoint = "MIC"
testresult = 25

[[record]]
smilesrecord = "O=[N+]([O-])c1ccc(-c2nc3ccccc3[nH]2)cc1"
assayendpoint = "MIC"
testresult = 50

[[record]]
smilesrecord = "c1ccc(-c2nc3ccccc3[nH]2)cc1"
assayendpoint = "MIC"
testresult = 12.5

[[record]]
smilesrecord = "CC1(C)S[C@@H]2[C@H](NC(=O)[C@H](N)c3ccccc3)C(=O)N2[C@H]1C(=O)O"
assayendpoint = "MIC"
testresult = 50

[[record]]
smilesrecord = "C(=C\\c1ccc(-c2nc3ccccc3[nH]2)cc1)/c1ccccc1"
assayendpoint = "MIC"
testresult = 12.5

